# TARGET_DESC: human recombinant adrenergic α2C receptor (Homo sapiens)
# Construct: expressed in transfected cells; host or cells: insect Sf9 cells
# PROTOCOL_NOTES: Adrenergic α2C radioligand binding ([3H]MK-912)
# CONDITION_SUMMARY: read-out: Adrenergic (0.1 μM) a2C, percent inhibition of specific binding; compound at 0.1 μM; 1 nM [3H]MK-912
MEASUREMENT_TYPE: inhibition at 0.1 µM (%)
Answers are plain numbers, in %.

[
  {
    "SMILES_STRING": "Cc1ccc2c(c1)c1c(n2-c2cscc2-c2cncc3ccccc23)CCN(C)C1",
    "inhibition at 0.1 µM (%)": 5
  },
  {
    "SMILES_STRING": "Cc1ccc2c(c1)c1c(n2-c2ccc(-c3cnc(N(C)C)nc3)cn2)CCN(C)C1",
    "inhibition at 0.1 µM (%)": -2
  },
  {
    "SMILES_STRING": "CNC(=O)c1ccc(-c2cscc2-n2c3c(c4cc(C)ccc42)CN(C)CC3)cc1",
    "inhibition at 0.1 µM (%)": 0
  },
  {
    "SMILES_STRING": "Cc1ccc2c(c1)c1c(n2-c2ccc(-c3ccc(C)nc3)cn2)CCN(C)C1",
    "inhibition at 0.1 µM (%)": -13
  },
  {
    "SMILES_STRING": "Cc1ccc2c(c1)c1c(n2-c2ccc(-c3ccc(S(N)(=O)=O)cc3)cn2)CCN(C)C1",
    "inhibition at 0.1 µM (%)": 6
  },
  {
    "SMILES_STRING": "Cc1ccc2c(c1)c1c(n2-c2cccs2)CCN(C)C1",
    "inhibition at 0.1 µM (%)": 17
  },
  {
    "SMILES_STRING": "Cc1ccc2c(c1)c1c(n2-c2ccccc2-c2ccc(C)nc2)CCN(C)C1",
    "inhibition at 0.1 µM (%)": 25
  },
  {
    "SMILES_STRING": "Cc1ccc2c(c1)c1c(n2-c2cccc(-c3cncc4ccccc34)c2)CCN(C)C1",
    "inhibition at 0.1 µM (%)": 8
  }
]

Please state, for each entry, its recorded inhibition at 0.1 µM.
1. Cc1ccc2c(c1)c1c(n2-c2cccc(-c3sccc3C)c2)CCN(C)C1
2. Cc1ccc2c(c1)c1c(n2-c2ccccc2-c2cnn(C)c2)CCN(C)C1
3. Cc1ccc2c(c1)c1c(n2-c2ccccc2-c2cncc3ccccc23)CCN(C)C1
4. Cc1ccc2c(c1)c1c(n2-c2ccccc2-c2c(C)noc2C)CCN(C)C1
5. Cc1cc(C)c2c(c1)c1c(n2-c2cccc3ncccc23)CCN(C)C1

### Response
[-16, 0, -6, 7, 11]

Please state, for each entry, its recorded inhibition at 0.1 µM.
1. Cc1ccc2c(c1)c1c(n2-c2cccc(-c3cnn(C)c3)c2)CCN(C)C1
2. CC(=O)Nc1ccc(-c2cccc(-n3c4c(c5cc(C)ccc53)CN(C)CC4)c2)cn1
3. Cc1ccc2c(c1)c1c(n2-c2cccc(-c3ccc(F)cc3)c2)CCN(C)C1
4. CNC(=O)c1cccc(-c2ccc(-n3c4c(c5cc(C)ccc53)CN(C)CC4)nc2)c1

### Response
1. 6
2. 7
3. 8
4. 8

---

Give measured inhibition at 0.1 µM for each item. Keep answers brief.
# TARGET_DESC: human recombinant serotonin (5-Hydroxytryptamine) 5-HT7 receptor (Homo sapiens, UniProt P34969)
# Construct: expressed in transfected cells; host or cells: CHO
# Sequence (P34969 whole entry): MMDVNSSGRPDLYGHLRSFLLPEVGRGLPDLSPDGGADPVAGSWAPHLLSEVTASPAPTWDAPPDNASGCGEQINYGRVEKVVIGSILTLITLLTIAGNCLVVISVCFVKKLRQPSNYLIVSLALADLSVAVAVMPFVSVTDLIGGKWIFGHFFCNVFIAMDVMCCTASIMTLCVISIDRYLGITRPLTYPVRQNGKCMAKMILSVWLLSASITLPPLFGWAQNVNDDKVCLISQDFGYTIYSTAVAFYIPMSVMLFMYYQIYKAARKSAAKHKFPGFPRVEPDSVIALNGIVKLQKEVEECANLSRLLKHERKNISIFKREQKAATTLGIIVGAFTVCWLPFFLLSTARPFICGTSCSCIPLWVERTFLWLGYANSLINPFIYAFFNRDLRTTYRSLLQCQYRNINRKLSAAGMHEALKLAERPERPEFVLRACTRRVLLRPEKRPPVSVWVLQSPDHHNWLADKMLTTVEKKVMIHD
# PROTOCOL_NOTES: Serotonin 5-HT7 radioligand binding ([3H]LSD)
# CONDITION_SUMMARY: compound at 0.1 μM; read-out: Inhibition of ligand binding, Serotonin 5-HT7 (percent inhibition of specific binding)
One number for each entry, in %.

[
  {
    "COMPOUND": "Cc1ccc2c(c1)c1c(n2-c2cscc2-c2ccc(O)nc2)CCN(C)C1 [Compound 49]",
    "inhibition at 0.1 µM [%]": 86
  }
]

Please state, for each entry, its recorded inhibition at 0.1 µM.
1. CN1CCc2c(c3cc(Cl)ccc3n2-c2cscc2-c2cccnc2)C1 [Compound 27]
2. Cc1ccc2c(c1)c1c(n2-c2cscc2-c2ccc(S(C)(=O)=O)cc2)CCN(C)C1 [Compound No. 76]

### Response
1. 94
2. 85

---

# TARGET_DESC: human recombinant adrenergic α2C receptor (Homo sapiens, UniProt P18825)
# Construct: expressed in transfected cells; host or cells: insect Sf9 cells
# Sequence (P18825 whole entry): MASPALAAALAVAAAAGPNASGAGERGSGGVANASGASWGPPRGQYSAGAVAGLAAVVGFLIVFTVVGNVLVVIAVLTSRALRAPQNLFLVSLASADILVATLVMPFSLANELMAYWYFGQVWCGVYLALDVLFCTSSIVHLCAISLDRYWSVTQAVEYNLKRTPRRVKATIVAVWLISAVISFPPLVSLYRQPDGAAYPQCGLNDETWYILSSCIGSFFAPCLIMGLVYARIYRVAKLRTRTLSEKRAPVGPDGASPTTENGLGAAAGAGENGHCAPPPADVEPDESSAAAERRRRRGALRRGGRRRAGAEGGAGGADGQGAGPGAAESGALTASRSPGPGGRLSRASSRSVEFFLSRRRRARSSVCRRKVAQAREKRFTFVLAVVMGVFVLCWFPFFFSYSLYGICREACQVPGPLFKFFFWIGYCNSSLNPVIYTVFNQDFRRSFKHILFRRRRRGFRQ
# PROTOCOL_NOTES: Adrenergic α2C radioligand binding ([3H]MK-912)
# CONDITION_SUMMARY: read-out: Adrenergic (0.1 μM) a2C, percent inhibition of specific binding; compound at 0.1 μM; 1 nM [3H]MK-912
MEASUREMENT_TYPE: inhibition at 0.1 µM (%)
Give bare numbers, in %.

Please state, for each entry, its recorded inhibition at 0.1 µM.
1. Cc1ccc2c(c1)c1c(n2-c2cscc2-c2ccc3c(ccn3C)c2)CCN(C)C1
2. Cc1ccc2c(c1)c1c(n2-c2cccc(-c3cn[nH]c3)c2)CCN(C)C1
3. Cc1ccc2c(c1)c1c(n2-c2ccccc2-c2ccnn2C)CCN(C)C1
4. Cc1ccc2c(c1)c1c(n2-c2ccc3ccncc3c2)CCN(C)C1

### Response
1: 87; 2: 8; 3: 20; 4: 11

---

# TARGET_DESC: human recombinant serotonin (5-Hydroxytryptamine) 5-HT5A receptor (Homo sapiens)
# Construct: expressed in transfected cells; host or cells: CHO-K1
# Sequence (P47898 whole entry): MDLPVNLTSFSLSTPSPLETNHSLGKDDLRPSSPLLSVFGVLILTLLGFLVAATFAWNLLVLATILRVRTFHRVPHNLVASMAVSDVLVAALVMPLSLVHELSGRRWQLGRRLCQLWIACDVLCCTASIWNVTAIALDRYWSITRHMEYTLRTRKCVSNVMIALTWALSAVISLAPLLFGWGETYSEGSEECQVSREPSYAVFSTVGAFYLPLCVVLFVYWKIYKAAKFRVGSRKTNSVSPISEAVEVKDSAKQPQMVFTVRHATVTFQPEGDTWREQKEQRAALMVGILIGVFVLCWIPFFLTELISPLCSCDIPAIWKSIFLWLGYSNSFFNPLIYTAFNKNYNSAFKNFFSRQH
# PROTOCOL_NOTES: Serotonin 5-HT5A radioligand binding ([3H]LSD)
# CONDITION_SUMMARY: compound at 0.1 μM; read-out: Inhibition of ligand binding, Serotonin 5-HT5A (percent inhibition of specific binding)
Give measured inhibition at 0.1 µM for each item. Keep answers brief.

[
  {
    "SMILES_STRING": "Cc1ccc2c(c1)c1c(n2-c2cccc(-c3cnc(N(C)C)nc3)c2)CCN(C)C1",
    "inhibition at 0.1 µM": "11%"
  },
  {
    "SMILES_STRING": "Cc1cc(C)c2c(c1)c1c(n2-c2cscc2-c2ccncc2)CCN(C)C1",
    "inhibition at 0.1 µM": "-13%"
  },
  {
    "SMILES_STRING": "Cc1ccc2c(c1)c1c(n2-c2cscc2-c2ccc(S(C)(=O)=O)cc2)CCN(C)C1",
    "inhibition at 0.1 µM": "90%"
  },
  {
    "SMILES_STRING": "Cc1ccc2c(c1)c1c(n2-c2cccc(-c3ccc4[nH]cnc4c3)c2)CCN(C)C1",
    "inhibition at 0.1 µM": "33%"
  },
  {
    "SMILES_STRING": "Cc1ccc2c(c1)c1c(n2-c2ccc(-c3cncc4ccccc34)cn2)CCN(C)C1",
    "inhibition at 0.1 µM": "77%"
  }
]

Please state, for each entry, its recorded inhibition at 0.1 µM.
1. Cc1ccc2c(c1)c1c(n2-c2ccccc2-c2cncc3ccccc23)CCN(C)C1
2. Cc1csc(-c2cscc2-n2c3c(c4cc(C)ccc42)CN(C)CC3)c1
3. Cc1ccc2c(c1)c1c(n2-c2cscc2-c2ccc(O)nc2)CCN(C)C1

### Response
1: 24%; 2: 81%; 3: 52%

Please state, for each entry, its recorded inhibition at 0.1 µM.
1. Cc1ccc2c(c1)c1c(n2-c2cccc(-c3cnn(C)c3)c2)CCN(C)C1
2. Cc1ccc2c(c1)c1c(n2-c2ccccc2-c2sccc2C)CCN(C)C1
3. Cc1ccc2c(c1)c1c(n2-c2cccc(-c3c(C)noc3C)c2)CCN(C)C1
4. Cc1ccc2c(c1)c1c(n2-c2cccc(-c3ccc4c(ccn4C)c3)c2)CCN(C)C1
5. Cc1ccc2c(c1)c1c(n2-c2ccc(-c3ccnn3C)cn2)CCN(C)C1
6. Cc1ccc2c(c1)c1c(n2-c2cscc2-c2cc3ccccc3s2)CCN(C)C1
7. Cc1ccc2c(c1)c1c(n2-c2cccc(-c3ccc(F)nc3)c2)CCN(C)C1
8. CNC(=O)c1cccc(-c2ccc(-n3c4c(c5cc(C)ccc53)CN(C)CC4)nc2)c1

### Response
1. 32%
2. 10%
3. 63%
4. 11%
5. 10%
6. 102%
7. 61%
8. 17%

Please state, for each entry, its recorded inhibition at 0.1 µM.
1. Cc1ccc2c(c1)c1c(n2-c2cccc(-c3ccc(C)nc3)c2)CCN(C)C1
2. CC(=O)Nc1ccc(-c2ccccc2-n2c3c(c4cc(C)ccc42)CN(C)CC3)cn1
3. Cc1ccc2c(c1)c1c(n2-c2ccccc2-c2cnn(C)c2)CCN(C)C1
4. Cc1ccc2c(c1)c1c(n2-c2ccc(-c3sccc3C)cn2)CCN(C)C1
5. Cc1ccc2c(c1)c1c(n2-c2cscc2-c2cnn(C)c2)CCN(C)C1
6. Cc1ccc2c(c1)c1c(n2-c2cccc(-c3ccnn3C)c2)CCN(C)C1
7. Cc1ccc2c(c1)c1c(n2-c2cccc(-c3cn[nH]c3)c2)CCN(C)C1
8. Cc1ccc2c(c1)c1c(n2-c2cccc(-c3ccc(S(N)(=O)=O)cc3)c2)CCN(C)C1

### Response
62%
11%
37%
50%
77%
36%
43%
62%
